- Tested on: WaGa
- test_protocol: qHTS assay to identify novel small-molecules to repurpose for Merkel cell carcinoma treatment (AID 1296009); further: nearly all actives have a fitted effect of over 60% in size
- setup_conditions: MCC and control cell lines, CellTiter-Glo viability, 72 h; series mostly up to 46 µM
Results filed as inconclusive are left out. Active and inactive are the calls of the source. The call rests on the fitted dose curve; in most records, active means well fitted inhibition curve with a large enough effect; inconclusive means small, poorly fitted or top-dose-only effect; inactive means flat fitted curve, though single readings scatter.
Outcome codes: yes (1) (active), no (0) (inactive)

{"columns": ["compound", "cat"],
 "data": [
  ["CCN1CCN(c2ccc(Nc3cc(N(C)C(=O)Nc4c(Cl)c(OC)cc(OC)c4Cl)ncn3)cc2)CC1", "no (0)"],
  ["O=C1Nc2ccc(I)cc2C1=Cc1cc(Br)c(O)c(Br)c1", "no (0)"],
  ["CC[C@H](C=C[C@@H](C)[C@H]1CC[C@H]2[C@@H]3CC=C4C[C@@H](O)CC[C@]4(C)[C@@H]3CC[C@]12C)C(C)C", "no (0)"],
  ["O=S(=O)(NCCNCC=Cc1ccc(Br)cc1)c1cccc2cnccc12", "yes (1)"],
  ["CN(C)CCOc1ccc(C(=C(CCCl)c2ccccc2)c2ccccc2)cc1", "no (0)"],
  ["Cc1ccccc1C(C(=O)NC1CCCCC1)N(C(=O)CNc1ccc(C#N)cc1)c1cccc(F)c1 (centres undefined)", "no (0)"],
  ["O=S(=O)(O)c1ccc2cc(N=Nc3cc(S(=O)(=O)O)c4cccnc4c3O)ccc2c1", "no (0)"],
  ["COC(=O)N1CCN(Cc2cccc(NC(=O)Nc3ccc(C)nc3)c2F)CC1", "no (0)"],
  ["CN1C(=O)C[C@H](C(=O)N[C@@H](Cc2cnc[nH]2)C(=O)N2CCC[C@@H]2C(N)=O)NC1=O", "yes (1)"]
]}

###

- test_protocol: Quantitative High-Throughput drug screen in 47 multiple myeloma cell lines against the NCATS MIPE library collection: U266_ATCC cell viability assay (AID 1919864); further: nearly all actives have a fitted effect of over 35% in size; further: potency means the concentration at half of the fitted maximal effect
- setup_conditions: U266 myeloma viability, CellTiter-Glo ATP luminescence, 48 h; series mostly up to 45.8 µM
Records with an inconclusive call do not appear. Active and inactive are the calls of the source. The call rests on the fitted dose curve; in most records, active means well fitted cell-killing curve with a large enough effect; inconclusive means small, poorly fitted or top-dose-only effect, or effect the other way; inactive means no such curve, though single readings can be large or run the other way.
reported_metric: Potency

{"columns": ["compound", "reported_metric", "result"],
 "data": [
  ["COc1nc(C)cnc1NS(=O)(=O)c1cccnc1-c1ccc(-c2nnco2)cc1", "Potency", "inactive"],
  ["Nc1ccc(-c2ccc3ncc4ccc(=O)n(-c5cccc(C(F)(F)F)c5)c4c3c2)cn1", "Potency", "0.372 µM (active)"],
  ["NC(=O)c1noc([C@H](CCCC2CCCCC2)CC(=O)NO)n1", "Potency", "20.9 µM (active)"],
  ["COC(=O)N1CCN(Cc2cccc(NC(=O)Nc3ccc(C)nc3)c2F)CC1", "Potency", "inactive"],
  ["CN1CC(=O)NC1=NC(=O)Nc1cccc(Cl)c1", "Potency", "20.9 µM (active)"],
  ["Cc1nn(Cc2ccccc2Cl)c(C)c1CN(C)CC(O)COc1ccc(Cl)cc1 (stereo not drawn)", "Potency", "18.7 µM (active)"],
  ["CN1[C@H]2CC[C@H]1CC(OC(=O)c1c[nH]c3ccccc13)C2 (stereo partly drawn)", "Potency", "10.5 µM (active)"],
  ["C[C@@]1(c2cc(-c3cncnc3)c(F)cc2F)CCSC(N)=N1", "Potency", "inactive"],
  ["C[C@@H]1O[C@@H](O[C@H]2CC[C@@]3(C)[C@H](CC[C@@H]4[C@H]3C[C@@H](O)[C@]3(C)[C@@H](C5=CC(=O)OC5)CC[C@]43O)C2)C[C@H](O)[C@@H]1O[C@H]1C[C@H](O)[C@H](O[C@H]2C[C@H](O)[C@@H](O)[C@@H](C)O2)[C@H](C)O1 (stereo in doubt)", "Potency", "0.121 µM (active)"],
  ["CC1=C(CC(=O)O)c2cc(F)ccc2C1=Cc1ccc(S(C)=O)cc1 (stereo not drawn)", "Potency", "1.18 µM (active)"],
  ["COc1ccnc(CS(=O)c2nc3ccc(OC(F)F)cc3[nH]2)c1OC (stereo not drawn)", "Potency", "inactive"],
  ["OCCn1cc(-c2ccc3c(c2)CCC3=NO)c(-c2ccncc2)n1", "Potency", "23.5 µM (active)"],
  ["CCN(CC)CCCCNc1nc2cc(Cl)c(Cl)cc2nc1-c1ccc(-c2cccs2)s1", "Potency", "23.5 µM (active)"],
  ["O=C(O)CCC=CCC[C@@H]1[C@H](N2CCCCC2)[C@@H](O)C[C@@H]1OCc1ccc(-c2ccccc2)cc1", "Potency", "inactive"],
  ["CC[C@H](C)n1cc(C)c2c(C(=O)NCc3c(C)cc(C)[nH]c3=O)cc(-c3ccc(N4CCNCC4)nc3)cc21", "Potency", "16.6 µM (active)"],
  ["Cc1ccc2c(=O)c3cccc(CC(=O)O)c3oc2c1C", "Potency", "18.7 µM (active)"],
  ["COc1nccc(-c2c(-c3ccc(F)cc3)ncn2C2CCNCC2)n1", "Potency", "inactive"],
  ["CC1=C[C@@H]2[C@@H]([C@@H](O)C[C@@]3(C)[C@H]2C[C@@H](C)[C@]3(O)C(=O)CO)[C@@]2(C)Cc3cnn(-c4ccccc4)c3C=C12", "Potency", "20.9 µM (active)"]
]}
